biological target: MOR (Homo sapiens, UniProt P35372); construct: purchased NIMH Psychoactive Drug Screening Program (PDSP); assay: PDSP radioligand binding at MOR; conditions: 1.5 h; primary binding, 10,000 nM; last figure of the line = mean of the 4 before it; read-out: MOR, PDSP raw data, mean
Sequence (P35372 whole entry): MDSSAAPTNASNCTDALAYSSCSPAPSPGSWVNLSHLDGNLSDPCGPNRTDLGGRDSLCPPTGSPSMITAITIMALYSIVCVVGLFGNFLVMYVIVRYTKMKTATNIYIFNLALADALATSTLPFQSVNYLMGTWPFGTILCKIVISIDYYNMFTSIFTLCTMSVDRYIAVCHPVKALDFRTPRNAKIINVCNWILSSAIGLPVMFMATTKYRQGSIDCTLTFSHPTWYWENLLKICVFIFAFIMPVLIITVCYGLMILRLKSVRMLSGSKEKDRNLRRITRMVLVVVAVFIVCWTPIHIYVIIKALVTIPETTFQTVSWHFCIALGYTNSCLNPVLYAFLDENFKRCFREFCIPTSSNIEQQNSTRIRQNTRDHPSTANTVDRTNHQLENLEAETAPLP
// values below are reported inhibition at 10 µM
Numbers only here, please. The scale is %.

Illustrative cases are given below, each with its answer.
1. C[C@H]1N=C(c2ccccc2F)c2cc(Cl)ccc2-n2cnc(-c3nc(C4CC4)no3)c21
30.2
2. CCc1noc(-c2ncn3c2[C@@H](C)N=C(c2ccccc2F)c2cc(-c4ccccc4)ccc2-3)n1
14.8
3. C#Cc1ccc2c(c1)C(c1ccccc1F)=N[C@H](C)c1c(C(=S)N(C)C)ncn1-2
-11.2
4. C#Cc1ccc2c(c1)C(c1ccccn1)=N[C@@H](C)c1c(C(=O)NC)ncn1-2
5.24
5. CCc1noc(-c2ncn3c2[C@@H](C)N=C(c2ccccc2F)c2cc(Cl)ccc2-3)n1
19.2
6. C#Cc1ccc2c(c1)C(c1ccccc1Cl)=N[C@H](C)c1c(C(=O)NC)ncn1-2
-3.57
7. C[C@H]1N=C(c2ccccc2F)c2cc(-c3ccccc3)ccc2-n2cnc(C(=O)N(C)C)c21
-11.2
8. CC(C)c1noc(-c2ncn3c2[C@@H](C)N=C(c2ccccc2F)c2cc(Cl)ccc2-3)n1
48.6

compound `CCc1noc(-c2ncn3c2[C@@H](C)N=C(c2ccccc2F)c2cc(C4CC4)ccc2-3)n1` , inhibition at 10 µM observed: 25.1

compound `CCc1noc(-c2ncn3c2CN=C(c2ccccc2F)c2cc(C4CC4)ccc2-3)n1` , inhibition at 10 µM observed: 26.4

compound `C#Cc1ccc2c(c1)C(c1ccccc1Cl)=N[C@H](C)c1c(C(=O)N(C)CC)ncn1-2` , inhibition at 10 µM observed: 7.31

compound `C#Cc1ccc2c(c1)C(c1ccccn1)=N[C@@H](C)c1c(C(=O)N(C)C)ncn1-2` , inhibition at 10 µM observed: 4.55
